Data credit: patent US8877801B2

# targetUnderTest: ERα (Homo sapiens, UniProt P03372)
# Construct: transfected in MCF7 cells (containing endogenous ER); endogenous in cells; host or cells: MCF7 cells
# Sequence (P03372 whole entry): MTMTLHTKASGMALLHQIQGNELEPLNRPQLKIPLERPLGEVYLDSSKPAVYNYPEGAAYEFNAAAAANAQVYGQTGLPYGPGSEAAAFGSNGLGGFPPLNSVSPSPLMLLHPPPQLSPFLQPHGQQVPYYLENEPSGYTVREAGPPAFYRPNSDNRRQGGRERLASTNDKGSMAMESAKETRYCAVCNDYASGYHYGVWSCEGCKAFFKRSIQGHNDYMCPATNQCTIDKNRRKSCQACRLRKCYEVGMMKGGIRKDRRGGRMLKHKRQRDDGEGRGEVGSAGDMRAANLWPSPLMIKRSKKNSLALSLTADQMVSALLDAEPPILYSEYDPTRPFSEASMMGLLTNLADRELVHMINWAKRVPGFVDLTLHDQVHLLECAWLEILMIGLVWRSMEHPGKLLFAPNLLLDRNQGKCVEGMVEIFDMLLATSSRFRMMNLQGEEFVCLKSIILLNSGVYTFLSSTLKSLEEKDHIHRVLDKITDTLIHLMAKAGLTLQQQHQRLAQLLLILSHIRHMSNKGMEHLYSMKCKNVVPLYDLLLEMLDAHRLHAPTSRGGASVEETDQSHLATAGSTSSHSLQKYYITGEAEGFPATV
# runDescription: ERα degradation (MCF7 cells), in-cell Western
# Assay type: cell-based
# runConditions: 10 μM concentration of the ligand, MCF7 cells, 18-24 hours, relative to DMSO control
reportedEndpoint: % ERα remaining
The reply must contain the numeric value and, after it, the unit.

Example compounds with recorded % ERα remaining:
CNC(=O)/C=C/c1ccc(Oc2c(-c3ccc(C(F)(F)F)cc3)sc3cc(O)ccc23)cc1 | 41%
Cc1cc(F)ccc1-c1sc2cc(O)ccc2c1Oc1ccc(/C=C/c2nnc(C3CC3)o2)cc1 | 36%
COc1cc(Oc2c(-c3ccc(O)cc3)sc3cc(O)ccc23)ccc1/C=C/C(=O)O | 35%
Oc1ccc(-c2sc3cc(O)ccc3c2Oc2ccc(/C=C/c3c[nH]cn3)cc2)cc1 | 47%
CNC(=O)/C=C/c1ccc(Oc2c(-c3ccc(O)c(F)c3)sc3cc(O)ccc23)cc1 | 32%
CNC(=O)/C=C/c1ccc(Oc2c(-c3ccc(O)cc3)sc3cc(O)ccc23)cn1 | 39%

[Q] Output % ERα remaining of CCCn1cncc1/C=C/c1ccc(Oc2c(-c3ccc(O)cc3)sc3cc(O)ccc23)cc1
[A] 42%

[Q] Return reported % ERα remaining. Input compound: CCCn1cnc(/C=C/c2ccc(Oc3c(-c4ccc(O)cc4)sc4cc(O)ccc34)cc2)c1
[A] 41%

[Q] Identify % ERα remaining associated with the compound Cn1cnc(/C=C/c2ccc(Oc3c(-c4ccc(O)cc4)sc4cc(O)ccc34)cc2)c1
[A] 32%
